Entry source: patent US9957247B2

target: PaSecA (Pseudomonas aeruginosa, UniProt Q9LCT3); experiment: cell-based; format: cell-based; conditions: Rose Bengal IC50, channel activity, PaSecA, Liposomes
Sequence (Q9LCT3 whole entry): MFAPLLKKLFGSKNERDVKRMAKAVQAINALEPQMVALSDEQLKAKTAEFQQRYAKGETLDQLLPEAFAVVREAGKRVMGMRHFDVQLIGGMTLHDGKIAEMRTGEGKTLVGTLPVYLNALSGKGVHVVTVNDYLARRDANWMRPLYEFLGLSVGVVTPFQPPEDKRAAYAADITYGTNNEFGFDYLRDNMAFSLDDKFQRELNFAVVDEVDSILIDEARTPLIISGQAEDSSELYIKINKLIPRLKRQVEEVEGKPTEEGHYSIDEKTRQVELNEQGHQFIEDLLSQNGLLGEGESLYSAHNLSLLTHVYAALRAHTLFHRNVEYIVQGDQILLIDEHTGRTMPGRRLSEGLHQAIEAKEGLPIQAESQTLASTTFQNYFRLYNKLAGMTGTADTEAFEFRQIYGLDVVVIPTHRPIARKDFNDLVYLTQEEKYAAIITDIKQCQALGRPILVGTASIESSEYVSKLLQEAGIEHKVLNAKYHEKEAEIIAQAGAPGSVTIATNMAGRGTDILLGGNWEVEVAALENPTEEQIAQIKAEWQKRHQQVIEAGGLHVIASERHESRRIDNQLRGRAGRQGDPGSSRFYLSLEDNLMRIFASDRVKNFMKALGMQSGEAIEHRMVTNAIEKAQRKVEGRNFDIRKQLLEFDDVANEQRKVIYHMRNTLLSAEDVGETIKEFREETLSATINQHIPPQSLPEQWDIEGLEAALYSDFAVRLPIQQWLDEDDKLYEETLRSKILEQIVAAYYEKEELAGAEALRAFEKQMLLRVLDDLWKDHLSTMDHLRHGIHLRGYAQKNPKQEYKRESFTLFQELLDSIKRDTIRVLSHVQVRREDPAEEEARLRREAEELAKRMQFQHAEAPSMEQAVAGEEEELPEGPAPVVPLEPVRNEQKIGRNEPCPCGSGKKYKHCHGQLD
Readout: IC50 (nM)
State just the number; it will be interpreted in nM.

Entry O=C(O)c1c(Cl)c(Cl)c(Cl)c(Cl)c1-c1c2cc(I)c(=O)c(I)c-2oc2c(I)c(O)c(I)cc12 — recorded IC50 = 300

----------
target: PaSecA (Pseudomonas aeruginosa, UniProt Q9LCT3); assay: cell-based; type: cell-based; conditions: Rose Bengal IC50, channel activity, PaSecA, Liposome + SecYEG
Readout: pIC50
Reminder that pIC50 means the negative base-10 logarithm of the concentration expressed in mol/L.

Per the records, this molecule ( O=C(O)c1c(Cl)c(Cl)c(Cl)c(Cl)c1-c1c2cc(I)c(=O)c(I)c-2oc2c(I)c(O)c(I)cc12 ) has pIC50 equal to 5.96
